Target: BCL6 (Homo sapiens)
Construct: endogenous in cells; host or cells: T47D breast cancer epithelial cells
Test: Immunofluorescence protocol for high content imaging of BCL6 (degradation) in T47D cells, 3 days compound treatment
Format: cell-based
Conditions: T47D, read-out: Mean Dmax (%)** category
quantity: Dmax

Answered cases to consult:
{"molecule": "CNC(=O)COc1cc2cc(Nc3nc(N4CCC(OC5CCC6(CC5)CN(c5ccc(OC)c7c5CN(C5CCC(=O)NC5=O)C7=O)C6)CC4)ncc3Cl)ccc2n(C(C)C)c1=O (centres unmarked) [Compound 304]", "observed measurement": "50 to 70%"}
{"molecule": "CNC(=O)COc1cc2cc(Nc3nc(N4CCC(O[C@H]5C[C@H](N6CCCC7(CCN(c8ccc9c(c8)C(=O)N(C8CCC(=O)NC8=O)C9=O)C7)C6)C5)CC4)ncc3Cl)ccc2n(C(C)C)c1=O (some centres unmarked) [Compound 355]", "observed measurement": "≥ 70%"}
{"molecule": "CCC(C)n1c(=O)c(OCC(=O)NC)cc2cc(Nc3nc(N4CCC(O[C@H]5C[C@H](N6CCC(c7ccc8c(c7F)CN(C7CCC(=O)NC7=O)C8=O)CC6)C5)CC4)ncc3Cl)ccc21 (some centres unmarked) [Compound 424]", "observed measurement": "≥ 70%"}
{"molecule": "CNC(=O)COc1cc2cc(Nc3nc(N4CCC(OC5CCC6(CC5)CN(c5ccc7c(c5C)CN(C5CCC(=O)NC5=O)C7=O)C6)CC4)ncc3Cl)ccc2n(C(C)C)c1=O (centres unmarked) [Compound 402]", "observed measurement": "≥ 70%"}

Then this molecule:
Indicate the recorded Dmax value for this molecule: CNC(=O)COc1cc2cc(Nc3nc(N4CCC(O[C@H]5C[C@H](N6CC7(CN(c8ccc9c(c8)C(=O)N(C8CCC(=O)NC8=O)C9=O)C7)C6)C5)CC4)ncc3Cl)ccc2n(C(C)C)c1=O (some centres unmarked) [Compound 311]
50 to 70%

----------
Molecular target: BCL6 (Homo sapiens, UniProt P41182)
Construct: endogenous in cells; host or cells: T47D breast cancer epithelial cells
Assay: Immunofluorescence protocol for high content imaging of BCL6 (degradation) in T47D cells, 3 days compound treatment
Assay type: cell-based
Settings: T47D, read-out: Mean Dmax (%)** category
Hi there, I'd appreciate the recorded Dmax for every entry that follows.

Answered cases to consult:
{"molecule": "CNC(=O)COc1cc2c(F)c(Nc3nc(N4CCC(O[C@H]5C[C@H](N6CCC(c7ccc8c(c7C)C(=O)N(C7CCC(=O)NC7=O)C8=O)CC6)C5)CC4)ncc3Cl)ccc2n(C(C)C)c1=O (some centres unmarked)", "observed measurement": "≥ 70%"}
{"molecule": "CNC(=O)COc1cc2cc(Nc3nc(N4CCC(O[C@H]5C[C@H](N6CCCC7(CCN(c8ccc9c(c8F)CN(C8CCC(=O)NC8=O)C9=O)C7)C6)C5)CC4)ncc3Cl)ccc2n(C(C)C)c1=O (some centres unmarked)", "observed measurement": "≥ 70%"}
{"molecule": "CNC(=O)COc1cc2cc(Nc3nc(N4CCC(O[C@H]5C[C@H](N6CCC7(CN(c8ccc9c(c8)C(=O)N(C8CCC(=O)NC8=O)C9)C7)C6)C5)CC4)ncc3Cl)ccc2n(C(C)C)c1=O (some centres unmarked)", "observed measurement": "≥ 70%"}
{"molecule": "CNC(=O)COc1cc2cc(Nc3nc(N4CCC(N(C)C5CCC6(CC5)CN(c5ccc7c(c5)C(=O)N(C5CCC(=O)NC5=O)C7=O)C6)CC4)ncc3Cl)ccc2n(C(C)C)c1=O (centres unmarked)", "observed measurement": "50 to 70%"}

Then this molecule:
Indicate the recorded Dmax value for this molecule: CNC(=O)COc1cc2cc(Nc3nc(N4CCC(O[C@H]5C[C@H](N6CCC(c7ccc8c(c7F)[C@@H](C)N([C@H]7CCC(=O)NC7=O)C8=O)CC6)C5)CC4)ncc3Cl)ccc2n(C(C)C)c1=O
< 50%

----------
Biological target: BCL6 (Homo sapiens)
Construct: endogenous in cells; host or cells: T47D breast cancer epithelial cells
Test: Immunofluorescence protocol for high content imaging of BCL6 (degradation) in T47D cells, 3 days compound treatment
Format: cell-based
Details: T47D cells, 3 days compound treatment, read-out: Mean Dmax (%)** category
Hi there, I'd appreciate the recorded Dmax for every entry that follows.

Answered cases to consult:
{"compound": "CNC(=O)COc1cc2cc(Nc3nc(N4CCC(O[C@H]5C[C@H](N6CCN(c7ccc8c(c7)CN(C7CCC(=O)NC7=O)C8=O)C(C)(C)C6)C5)CC4)ncc3Cl)ccc2n(C(C)C)c1=O (some centres unmarked)", "quantity": "Dmax", "observed measurement": "≥ 70%"}
{"compound": "CNC(=O)COc1cc2cc(Nc3nc(N4CCC(CN5CCC6(CC5)CN(c5ccc7c(c5)C(=O)N(C5CCC(=O)NC5=O)C7=O)C6)CC4)ncc3F)ccc2n(C(C)C)c1=O (centres unmarked)", "quantity": "Dmax", "observed measurement": "50 to 70%"}
{"compound": "CNC(=O)COc1cc2cc(Nc3nc(N4CCC(OC5CN([C@H]6CC[C@@H](c7ccc8c(c7)CN(C7CCC(=O)NC7=O)C8=O)CC6)C5)CC4)ncc3Cl)ccc2n(C(C)C)c1=O (single isomer, unassigned)", "quantity": "Dmax", "observed measurement": "50 to 70%"}

I would be grateful if you could provide Dmax for each of the following entries.
1. CNC(=O)COc1cc2cc(Nc3nc(N4CCC(O[C@H]5C[C@H](N6CCN(c7ccc8c(c7Cl)CN(C7CCC(=O)NC7=O)C8=O)CC6)C5)CC4)ncc3Cl)ccc2n(C(C)C)c1=O (some centres unmarked)
2. CNC(=O)COc1cc2cc(Nc3nc(N4CCC5(CCN(CC6(F)CCN(c7cccc8c7C(=O)N(C7CCC(=O)NC7=O)C8=O)CC6)CC5)CC4)ncc3Cl)ccc2n(C(C)C)c1=O (centres unmarked)

["≥ 70%", "50 to 70%"]

----------
Target: BCL6 (Homo sapiens)
Construct: endogenous in cells; host or cells: T47D breast cancer epithelial cells
Assay: Immunofluorescence protocol for high content imaging of BCL6 (degradation) in T47D cells, 3 days compound treatment
Assay type: cell-based
Conditions: T47D, read-out: Mean Dmax (%)** category
quantity: Dmax

Answered cases to consult:
{"molecule": "CNC(=O)COc1cc2cc(Nc3nc(N4CCC(O[C@H]5C[C@H](N6CC7(CCN(c8ccc9c(c8F)CN(C8CCC(=O)NC8=O)C9=O)CC7)C6)C5)CC4)ncc3Cl)ccc2n(C(C)C)c1=O (stereo partly shown)", "Dmax": "≥ 70%"}
{"molecule": "CNC(=O)COc1cc2cc(Nc3nc(N4CCC(O[C@H]5C[C@H](N6CCN(c7ccc8c(c7)C(=O)N(C7CCC(=O)NC7=O)C8=O)[C@@H](C)C6)C5)CC4)ncc3Cl)ccc2n(C(C)C)c1=O (stereo partly shown)", "Dmax": "≥ 70%"}
{"molecule": "CNC(=O)COc1cc2cc(Nc3nc(N4CCC(O[C@H]5C[C@H](N6CCC(c7ccc8c(c7F)CN(C7CCC(=O)NC7=O)C8=O)CC6)C5)CC4)ncc3Cl)ccc2n(C2CCCCC2)c1=O (stereo partly shown)", "Dmax": "≥ 70%"}
{"molecule": "CNC(=O)COc1cc2cc(Nc3nc(N4CCC(N5CCC6(C5)CN(C5CCN(c7ccc8c(c7)C(=O)N(C7CCC(=O)NC7=O)C8=O)CC5)C6)CC4)ncc3Cl)ccc2n(C(C)C)c1=O (stereo not shown)", "Dmax": "≥ 70%"}
{"molecule": "CNC(=O)COc1cc2c(F)c(Nc3nc(N4CCC(CN5CCC6(CN(c7ccc8c(c7F)CN(C7CCC(=O)NC7=O)C8=O)C6)C(F)(F)C5)CC4)ncc3Cl)ccc2n(C(C)C)c1=O (stereo not shown)", "Dmax": "≥ 70%"}
{"molecule": "CNC(=O)COc1cc2cc(Nc3nc(N4CCC(O[C@H]5C[C@H](N6CCC(c7ccc8c(c7F)CN([C@@H]7CCC(=O)NC7=O)C8=O)CC6)C5)CC4)ncc3Cl)ccc2n(C(C)C)c1=O", "Dmax": "50 to 70%"}
{"molecule": "CNC(=O)COc1cc2cc(Nc3nc(N4CCC(CN5CCC6(CC5)CC5(CN(c7ccc8c(c7F)CN(C7CCC(=O)NC7=O)C8=O)C5)C6)CC4)ncc3Cl)ccc2n(C(C)C)c1=O (stereo not shown)", "Dmax": "≥ 70%"}
{"molecule": "CNC(=O)COc1cc2cc(Nc3nc(N4CCC(O[C@H]5C[C@H](N6CCN(c7ccc8c(c7Cl)CN([C@H]7CCC(=O)NC7=O)C8=O)[C@H](C)C6)C5)CC4)ncc3Cl)ccc2n(C(C)C)c1=O", "Dmax": "50 to 70%"}
{"molecule": "CNC(=O)COc1cc2cc(Nc3nc(N4CCC(O[C@H]5C[C@H](N6CCC7(CC6)CN(c6ccc8c(c6F)CN(C6CCC(=O)NC6=O)C8=O)C7)C5)CC4)ncc3Cl)ccc2n(C(C)C)c1=O (stereo partly shown)", "Dmax": "≥ 70%"}

Then this molecule:
Enter Dmax (test system BCL6 (Homo sapiens)) for CNC(=O)COc1cc2cc(Nc3nc(N4CCC(O[C@H]5C[C@H](N6CCC7(CCN(c8ccc9c(c8)CN(C8CCC(=O)NC8=O)C9=O)CC7)CC6)C5)CC4)ncc3Cl)ccc2n(C(C)C)c1=O (stereo partly shown)
≥ 70%

Values from patent US11986532B2
